test system: NCI-H1299; assay: Cytotoxicity against human H1299 cells assessed as reduction in cell viability incubated for 48 hrs by MTT assay; type: functional, cell-based; details: NCI-H1299, 48 h
I'd be grateful if you could share measured IC50 for these entries.
Please reply with the bare figure in µM and do not write the unit itself.

The compound listed as O=C1C[C@H](OCc2cc(-c3ccc(Cl)o3)no2)[C@H]2CO[C@@H]1O2 shows IC50 equal to 7.6

The compound listed as O=C1C[C@H](OCc2cc(-c3ccc([N+](=O)[O-])cc3)no2)[C@H]2CO[C@@H]1O2 shows IC50 equal to 11.2

The compound listed as O=C1C[C@H](OCc2cc(-c3ccc(Cl)cc3)no2)[C@H]2CO[C@@H]1O2 shows IC50 equal to 9

The compound listed as C=C(C)Cn1cc(CO[C@H]2CC(=O)[C@@H]3OC[C@H]2O3)nn1 shows IC50 equal to 14.3

The compound listed as O=C1C[C@H](OCc2cn(-c3ccc(Cl)cc3)nn2)[C@H]2CO[C@@H]1O2 shows IC50 equal to 10.6

The compound listed as O=C1C[C@H](OCc2cc(-c3ccccc3)no2)[C@H]2CO[C@@H]1O2 shows IC50 equal to 9.8

The compound listed as O=C1C[C@H](OCc2cn(C(=O)OCC3c4ccccc4-c4ccccc43)nn2)[C@H]2CO[C@@H]1O2 shows IC50 equal to 9

The compound listed as O=C1C[C@H](OCc2cn(-c3ccccc3)nn2)[C@H]2CO[C@@H]1O2 shows IC50 equal to 10.9

The compound listed as O=C1C[C@H](OCc2cc(/C=C/c3ccccc3)no2)[C@H]2CO[C@@H]1O2 shows IC50 equal to 7.1

The compound listed as O=C1C[C@H](OCc2cn(C3CCCCC3)nn2)[C@H]2CO[C@@H]1O2 shows IC50 equal to 12

The compound listed as O=C1C[C@H](OCc2cc(C3CCCCC3)no2)[C@H]2CO[C@@H]1O2 shows IC50 equal to 6.1

The compound listed as O=C1C[C@H](OCc2cn(-c3ccc([N+](=O)[O-])cc3)nn2)[C@H]2CO[C@@H]1O2 shows IC50 equal to 10.3

----------
assay: Selectivity index, ratio of IC50 for African green monkey Vero cells to IC50 for human MDA-MB-231 cells; format: toxicity; conditions: Vero cells versus MDA-MB-231 cells, read-out: Ratio IC50
I'd be grateful if you could share measured selectivity ratio for these entries.

The molecule listed as O=C1C[C@H](OCc2cn(C(=O)OCC3c4ccccc4-c4ccccc43)nn2)[C@H]2CO[C@@H]1O2 shows selectivity ratio equal to > 2

The molecule listed as O=C1C[C@H](OCc2cn(C3CCCCC3)nn2)[C@H]2CO[C@@H]1O2 shows selectivity ratio equal to > 2

----------
I'd be grateful if you could share measured IC50 for these entries.
tested on: MDA-MB-231; assay: Cytotoxicity against human MDA-MB-231 cells assessed as reduction in cell viability incubated for 48 hrs by MTT assay; type: functional, cell-based; conditions: MDA-MB-231, 48 h
Please reply with the bare figure in µM and do not write the unit itself.

The compound listed as COC(=O)Cn1cc(CO[C@H]2CC(=O)[C@@H]3OC[C@H]2O3)nn1 shows IC50 equal to 21.3

The compound listed as O=C1C[C@H](OCc2cc(-c3ccc([N+](=O)[O-])cc3)no2)[C@H]2CO[C@@H]1O2 shows IC50 equal to 16.5

The compound listed as O=C1C[C@H](OCc2cn(-c3cccc4ccccc34)nn2)[C@H]2CO[C@@H]1O2 shows IC50 equal to 21.9

The compound listed as O=C1C[C@H](OCc2cc(-c3ccccc3)no2)[C@H]2CO[C@@H]1O2 shows IC50 equal to 21.9

The compound listed as CCCCn1cc(CO[C@H]2CC(=O)[C@@H]3OC[C@H]2O3)nn1 shows IC50 equal to 27.9

The compound listed as O=C1CCCCC1n1cc(CO[C@H]2CC(=O)[C@@H]3OC[C@H]2O3)nn1 (some centres undefined) shows IC50 equal to 36

The compound listed as O=C1C[C@H](OCc2cc(-c3cc(C(F)(F)F)cc(C(F)(F)F)c3)no2)[C@H]2CO[C@@H]1O2 shows IC50 equal to 23.9

----------
I'd be grateful if you could share measured IC50 for these entries.
system: MDA-MB-231; assay: Cytotoxicity against human MDA-MB-231 cells assessed as reduction in cell viability incubated for 48 hrs by MTT assay; type: functional, cell-based; conditions: MDA-MB-231, 48 h
Please reply with the bare figure in µM and do not write the unit itself.

The molecule listed as O=C1C[C@H](OCc2cc(C3CCCCC3)no2)[C@H]2CO[C@@H]1O2 shows IC50 equal to 15.8

The molecule listed as O=C1C[C@H](OCc2cn(-c3ccccc3Br)nn2)[C@H]2CO[C@@H]1O2 shows IC50 equal to 22.5

The molecule listed as O=C1C[C@H](OCc2cc(-c3ccc4ccccc4c3)no2)[C@H]2CO[C@@H]1O2 shows IC50 equal to 21.2

The molecule listed as O=C1C[C@H](OCc2cn(Cc3ccc4ccccc4c3)nn2)[C@H]2CO[C@@H]1O2 shows IC50 equal to 23.7

The molecule listed as O=C1C[C@H](OCc2cn(-c3ccccc3Cl)nn2)[C@H]2CO[C@@H]1O2 shows IC50 equal to 26.4

The molecule listed as O=C1C[C@H](OCc2cn(Cc3ccc([N+](=O)[O-])cc3)nn2)[C@H]2CO[C@@H]1O2 shows IC50 equal to 25.4

The molecule listed as O=C1C[C@H](OCc2cc(/C=C/c3ccccc3)no2)[C@H]2CO[C@@H]1O2 shows IC50 equal to 22.9

The molecule listed as COc1ccc(/C=C/c2cc(CO[C@H]3CC(=O)[C@@H]4OC[C@H]3O4)on2)cc1 shows IC50 equal to 26.4

The molecule listed as O=C1C[C@H](OCc2cc(-c3ccc(Cl)o3)no2)[C@H]2CO[C@@H]1O2 shows IC50 equal to 13.8

The molecule listed as O=C1C[C@H](OCc2cc(-c3ccc(Cl)cc3)no2)[C@H]2CO[C@@H]1O2 shows IC50 equal to 17.9

The molecule listed as O=C1C[C@H](OCc2cn(C(=O)OCC3c4ccccc4-c4ccccc43)nn2)[C@H]2CO[C@@H]1O2 shows IC50 equal to 18.6

The molecule listed as O=C(O)c1ccc(-n2cc(CO[C@H]3CC(=O)[C@@H]4OC[C@H]3O4)nn2)cc1 shows IC50 equal to 23.2

The molecule listed as C=C(C)Cn1cc(CO[C@H]2CC(=O)[C@@H]3OC[C@H]2O3)nn1 shows IC50 equal to 26.7

The molecule listed as O=C1C[C@H](OCc2cn(-c3ccc([N+](=O)[O-])cc3)nn2)[C@H]2CO[C@@H]1O2 shows IC50 equal to 24.8

The molecule listed as COc1ccc(Cn2cc(CO[C@H]3CC(=O)[C@@H]4OC[C@H]3O4)nn2)cc1 shows IC50 equal to 34.8

----------
assay: Selectivity index, ratio of IC50 for African green monkey Vero cells to IC50 for human H1299 cells; format: toxicity; conditions: Vero cells versus H1299 cells, read-out: Ratio IC50
I'd be grateful if you could share measured selectivity ratio for these entries.
Respond numerically, and do not add a unit to the figure.

The compound listed as O=C1C[C@H](OCc2cn(C3CCCCC3)nn2)[C@H]2CO[C@@H]1O2 shows selectivity ratio equal to 5

The compound listed as O=C1C[C@H](OCc2cn(C(=O)OCC3c4ccccc4-c4ccccc43)nn2)[C@H]2CO[C@@H]1O2 shows selectivity ratio equal to 5

----------
I'd be grateful if you could share measured selectivity ratio for these entries.
test: Selectivity index, ratio of IC50 for African green monkey Vero cells to IC50 for human HT-29 cells; format: toxicity; conditions: Vero cells versus HT-29 cells, read-out: Ratio IC50
Respond numerically, and do not add a unit to the figure.

The compound listed as O=C1C[C@H](OCc2cn(C(=O)OCC3c4ccccc4-c4ccccc43)nn2)[C@H]2CO[C@@H]1O2 shows selectivity ratio equal to 6

The compound listed as O=C1C[C@H](OCc2cn(C3CCCCC3)nn2)[C@H]2CO[C@@H]1O2 shows selectivity ratio equal to 6

----------
test system: MDA-MB-231; assay: Cytotoxicity against human MDA-MB-231 cells assessed as reduction in cell viability incubated for 48 hrs by MTT assay; format: functional, cell-based; details: MDA-MB-231, 48 h
Property: IC50 (µM)
Please reply with the bare figure in µM and do not write the unit itself.

The compound listed as O=C1C[C@H](OCc2cn(-c3cccc(Cl)c3Cl)nn2)[C@H]2CO[C@@H]1O2 shows IC50 equal to 26

The compound listed as O=C1C[C@H](OCc2cn(-c3ccc(F)cc3)nn2)[C@H]2CO[C@@H]1O2 shows IC50 equal to 23.7

The compound listed as O=C1C[C@H](OCc2cn(-c3ccccc3)nn2)[C@H]2CO[C@@H]1O2 shows IC50 equal to 25.2
